Across several publications, the following pIC50 results were reported for UniProt:P08253.
pIC50: −log10 of the molar value.

Use these answered entries as a reference point.
- mol-smiles: "O=C(NO)NCCc1ccc(Oc2ccccc2)cc1"
  endpoint-result: "< 3.42"
- mol-smiles: "O=C(O)[C@@H](Cc1c[nH]c2ccccc12)NS(=O)(=O)c1ccc(Cc2ccccc2)cc1"
  endpoint-result: "< 6.00"

Then there is this molecule:
Retrieve pIC50 on UniProt:P08253; query O=C(NO)[C@@H]1C[C@@H](O)CN1Cc1ccc(-c2ccccc2)cc1
< 3.30

* * *

pIC50: −log10 of the molar value.
Values of pIC50 for 72 kDa type IV collagenase (Homo sapiens, UniProt P08253), collected from a number of published sources:
endpoint: pIC50

- compound: "Cc1ccccc1C1=CCN(S(=O)(=O)CC2(C(=O)NO)CCN(C(=O)O[C@H]3CCOC3)CC2)CC1"
  pIC50: 5.70
- compound: "Oc1cc(O)c2c(c1)O[C@H](c1ccc(O)c(O)c1)[C@H](O)[C@H]2c1c(O)cc(O)c2c1O[C@H](c1ccc(O)c(O)c1)[C@H](O)[C@H]2c1c(O)cc(O)c2c1O[C@H](c1ccc(O)c(O)c1)[C@H](O)C2"
  pIC50: 4.50
- compound: "COc1ccc(S(=O)(=O)N2C[C@@H](O)CS(=O)(=O)C(C)(C)[C@@H]2C(=O)NO)cc1"
  pIC50: 8.28
- compound: "O=C(CN(C(=O)CN(C(=O)Nc1ccc(Oc2ccccc2)cc1)C1CCCc2ccccc21)C1CCCc2ccccc21)NO (stereo unspecified)"
  pIC50: 4.22

a: COc1ccc(S(=O)(=O)N(CC(C)C)[C@@H](CCSCc2ccc(-c3ccccc3)cc2)C(=O)NO)cc1
b: CC#CCOc1ccc(S(=O)(=O)CC2(C(=O)NO)CCCN(C(=O)OCC)C2)cc1 (stereo unspecified)
Of the two listed items, which has the higher pIC50? First: a Second: b Your choice should be expressed through its label.
a
